- ASSAY NAME: Cytotoxic activity, MTT assay, normal lung (WI-38)
- Format: cell-based
- CONDITION PARAMETERS: human, WI-38 normal lung cells, Conc. as printed: 5a 53.81, 5d 50.55, 5e 49.15, 5f 47.26, 7a 50.86, 7f 44.96, DOX 46.00; read-out: Viability %, WI-38, 3rd concentration

MOLECULE: COc1ccc(Nc2n[nH]c(/N=C/c3ccc(N4CCCCC4)cc3)c2C(=O)Nc2ccc(C)cc2)cc1
viability at 48 h [%]: 81
--
MOLECULE: COc1ccc(Nc2n[nH]c(/N=C/c3ccc(N4CCCCC4)cc3)c2C(=O)Nc2ccccc2)cc1
viability at 48 h [%]: 82.7
--
MOLECULE: O=C(Nc1ccccc1)c1c(Nc2ccccc2)n[nH]c1N=Cc1ccc(N2CCCCC2)cc1
viability at 48 h [%]: 69.5
--
MOLECULE: COc1ccc(Nc2n[nH]c(N=Cc3ccc(N4CCCCC4)cc3)c2C(=O)Nc2ccc(Cl)cc2)cc1
viability at 48 h [%]: 76
--
MOLECULE: COc1ccc(Nc2n[nH]c(N=Cc3c(C)n(C)n(-c4ccccc4)c3=O)c2C(=O)Nc2ccc(Cl)cc2)cc1
viability at 48 h [%]: 79.3
--
MOLECULE: Cc1c(C=Nc2[nH]nc(Nc3ccccc3)c2C(=O)Nc2ccccc2)c(=O)n(-c2ccccc2)n1C
viability at 48 h [%]: 82.7

====

Collected viability at 48 h values appear next to each entry.
- ASSAY NAME: Cytotoxic activity, MTT assay, normal lung (WI-38)
- Format: cell-based
- CONDITION PARAMETERS: human, WI-38 normal lung cells, Conc. as printed: 5a 107.63, 5d 101.09, 5e 98.31, 5f 94.51, 7a 101.72, 7f 89.93, DOX 91.99; read-out: Viability %, WI-38, 4th concentration
MEASURED ATTRIBUTE: viability at 48 h (%)

MOLECULE: COc1ccc(Nc2n[nH]c(N=Cc3ccc(N4CCCCC4)cc3)c2C(=O)Nc2ccc(Cl)cc2)cc1
MEASURED ATTRIBUTE: viability at 48 h
MEASURED RESULT: 60.7

MOLECULE: O=C(Nc1ccccc1)c1c(Nc2ccccc2)n[nH]c1N=Cc1ccc(N2CCCCC2)cc1
MEASURED ATTRIBUTE: viability at 48 h
MEASURED RESULT: 54.2

MOLECULE: COc1ccc(Nc2n[nH]c(/N=C/c3ccc(N4CCCCC4)cc3)c2C(=O)Nc2ccccc2)cc1
MEASURED ATTRIBUTE: viability at 48 h
MEASURED RESULT: 76.8

MOLECULE: Cc1c(C=Nc2[nH]nc(Nc3ccccc3)c2C(=O)Nc2ccccc2)c(=O)n(-c2ccccc2)n1C
MEASURED ATTRIBUTE: viability at 48 h
MEASURED RESULT: 76.8

MOLECULE: COc1ccc(Nc2n[nH]c(N=Cc3c(C)n(C)n(-c4ccccc4)c3=O)c2C(=O)Nc2ccc(Cl)cc2)cc1
MEASURED ATTRIBUTE: viability at 48 h
MEASURED RESULT: 73.3

MOLECULE: COc1ccc(Nc2n[nH]c(/N=C/c3ccc(N4CCCCC4)cc3)c2C(=O)Nc2ccc(C)cc2)cc1
MEASURED ATTRIBUTE: viability at 48 h
MEASURED RESULT: 65.7

FYI, the data here is from paper PMC11125359.
